ASSAY EXPLANATION: Emission spectra and fluorescence quantum yield
Format: physicochemical
REPORTED CONDITIONS: in aq. PBS, pH 7.4
Counter-ions that a name gives are not always drawn.
For each entry below, report its Emission max. value.
Give bare numbers, in nm.

// below: answered molecules
MOLECULE	READOUT UNIT	REPORTED VALUE
CN(C)c1ccc2c(P(=O)(Oc3ccccc3C(=O)[O-])N(C)C)c3ccc(=[N+](C)C)cc-3oc2c1 (stereo not shown) [Compound 9]	nm	638
CCOP(=O)(C1=c2cc3c4c(c2Oc2c1cc1c5c2CCCN5CCC1)CCC[N+]=4CCC3)N(C)CCC(=O)O (stereo not shown) [Compound 19, trifluoroacetate]	nm	705
CC(C)OP(=O)(OC(C)C)c1c2ccc(N(C)C)cc2[o+]c2cc(N(C)C)ccc12.O=C([O-])C(F)(F)F [Compound 6]	nm	668
COP(=O)(C1=c2cc3c4c(c2Oc2c1cc1c5c2CCCN5CCC1)CCC[N+]=4CCC3)N(C(C)C)C(C)C (stereo not shown) [Compound 17, trifluoroacetate]	nm	696

Give Emission max. for each of the items listed below.
1. COP(=O)(OC)c1c2ccc(=[N+](C)C)cc-2oc2cc(N(C)C)ccc12.O=C([O-])C(F)(F)F [Compound 5]
2. C=CCOC(=O)CCCOP(=O)(OC)[c+]1c2ccc(N(C)C)cc2oc2cc(N(C)C)ccc21 (stereo not shown) [Compound 12]
3. CCN(CC)c1ccc2c(P(=O)(O)O)c(-c3nc4ccccc4s3)c(=O)oc2c1 [Compound 4]

1. 667
2. 669
3. 613

* * *

For each entry below, report its Emission max. value.
ASSAY EXPLANATION: Emission spectra and fluorescence quantum yield
Format: physicochemical
REPORTED CONDITIONS: in methanol
Counter-ions that a name gives are not always drawn.
One number for each entry, in nm.

// below: answered molecules
MOLECULE	Emission max. / nm
CN(C)c1ccc2c(P(=O)(Oc3ccccc3C(=O)[O-])N(C)C)c3ccc(=[N+](C)C)cc-3oc2c1 (stereo not shown)	622
COP(=O)(OC)c1c2ccc(N(C)C)cc2[n+](C)c2cc(N(C)C)ccc12 [Compound 22, trifluoroacetate]	620
CN(C)c1ccc2c([PH](=O)O)c3ccc(N(C)C)cc3[n+](CCCC(=O)O)c2c1.O=C([O-])C(F)(F)F	579

Shift focus to the following entry.
Quick check: Emission max. of CN(C)c1ccc2c(c1)-c1cccc3c(N(C)C)ccc(c13)C2.[O-][Cl+3]([O-])([O-])O [Compound 28d] ?
673

* * *

ASSAY EXPLANATION: Absorption spectroscopy (UV/Vis)
Format: physicochemical
REPORTED CONDITIONS: in methanol
Protocol: Absorption spectra were recorded with a Varian Cary 4000 UV-Vis double-beam spectrophotometer (Agilent Technologies, USA). For the determination of the absorption spectra, quartz cells with a 1 cm path length were used. Emission spectra and fluorescence quantum yield were obtained on a Quantaurus-QY Absolute PL quantum yield spectrometer C11347 (Hamamatsu Photonics, Japan) or on a Varian Cary Eclipse fluorescence spectrometer (Agilent Technologies, USA).
Counter-ions that a name gives are not always drawn.
PROPERTY: Absorption max. (nm)
One number for each entry, in nm.

// below: answered molecules
MOLECULE	READOUT UNIT	Absorption max.
COP(=O)(OC)c1c2ccc(N(C)C)cc2[n+](C)c2cc(N(C)C)ccc12 [Compound 22, trifluoroacetate]	nm	560
CN(C)c1ccc2c(P(=O)(Oc3ccccc3C(=O)[O-])N(C)C)c3ccc(=[N+](C)C)cc-3oc2c1 (stereo not shown) [Compound 9]	nm	589
CN(C)c1ccc2c(c1)-c1cccc3c(N(C)C)ccc(c13)C2.[O-][Cl+3]([O-])([O-])O [Compound 28d]	nm	646

Shift focus to the following entry.
Quick check: Absorption max. of CN(C)c1ccc2c([PH](=O)O)c3ccc(N(C)C)cc3[n+](CCCC(=O)O)c2c1.O=C([O-])C(F)(F)F [Compound 23] ?
527
